Kindly state GI50 for each of the entries shown.
tested on: EKVX NSCLC; assay: NCI tumour cell line growth inhibition, 48 h

1) Fc1cccc(COc2ccc(Nc3ncncc3C#Cc3ccccc3)cc2Cl)c1	8.26 µM

Parameters: items (list). Returns: GI50 for each item.
1. Brc1cccc(-c2cc(-c3ccc4c(c3)OCCO4)[nH]n2)c1
2. COc1ccc(NC(=O)Nc2n[nH]c3ccccc23)cc1

Result:
["7.21 µM", "> 100 µM"]

###

test system: IGROV1 ovarian; experiment: NCI tumour cell line growth inhibition, 48 h
Kindly state TGI for each of the entries shown.

1) Cn1cc(NC(=O)c2cc(NC(=O)CCCCCCCCCCC(=O)Nc3cc(C(=O)Nc4cc(C(=O)NCCC(=N)N)n(C)c4)n(C)c3)cn2C)cc1C(=O)NCCC(=N)N	> 100 µM
2) COc1ccc(Nc2[nH]c(C(C)=O)c(N)c2C(=S)Nc2ccccc2)cc1	> 100 µM
3) O=C1CC(C(O)CO)CC(=O)N1 (centres undefined)	> 100 µM
4) CC(C)(C)OC(=O)NC(Cc1ccccc1)C(=O)OCN1C(=O)C2C3C=CC(C2C1=O)C1C2C(=O)N(COC(=O)C(Cc4ccccc4)NC(=O)OC(C)(C)C)C(=O)C2C31 (centres undefined)	97.4 µM
5) O=C1/C(=C/c2ccc(F)cc2)CCOc2ccc([N+](=O)[O-])cc21	10.8 µM
6) Cc1cc2c(cc1C)[n+](=O)c(C(=O)C/C(=N/NC(=O)c1ccccc1O)C(=O)Nc1ccccc1C(C)C)c(C)n2[O-]	> 100 µM
7) CC12CC(c3ccccc3O1)C(C(=O)Nc1ccc(F)cc1)C(=O)N2 (centres undefined)	> 100 µM
8) O=C(Nc1ccc(I)cc1C(=O)NCCO)c1cccs1	> 100 µM

Query compound follows.
Query: Entry under review: CNC(=O)c1ccccc1CC1(O)c2ccccc2Oc2ccccc21 . Reported TGI?
Result: > 100 µM

###

Kindly state GI50 for each of the entries shown.
test system: SF-539 CNS; test: NCI tumour cell line growth inhibition, 48 h

1. Cc1cc2nc3c4cc(Cl)ccc4n(CCN(C)C)c3nc2cc1C	1550 nM

Parameters: items (list). Returns: GI50 for each item.
1. COc1c(C2CC(=O)Nc3c2cnn3Cc2ccco2)cc2c(c1OC)OCO2 (stereo not drawn)
2. CCC(C)C1NC(=O)c2nc(oc2-c2ccccc2)-c2csc(n2)-c2csc(n2)-c2nc(oc2C)-c2coc(n2)CNC(=O)C(C(C)CC)NC1=O (stereo not drawn)
3. CN1CCN(Cc2ccc(C(=O)Nc3cncc(C#Cc4cnc(N)c5ccccc45)c3)cc2C(F)(F)F)CC1

Result:
434 nM
111 nM
1540 nM

Parameters: items (list). Returns: GI50 for each item.
1. Cc1nn(-c2ccc(S(=O)(=O)[O-])cc2)c([O-])c1N=[N+](C)c1ccc(-c2ccc(N=Nc3ccc4c(S(=O)(=O)[O-])cc(S(=O)(=O)[O-])c(N)c4c3[O-])c([O-])c2)cc1[O-].[Cu+2].[Cu+2].[Na+]
2. CCc1c2c(nc3cc4c(cc13)OCO4)-c1cc3c(c(=O)n1C2)COC(=O)[C@]3(O)CC

Result:
> 100000 nM
< 1 nM

Parameters: items (list). Returns: GI50 for each item.
1. COc1ccc(-c2nn(-c3cccc(Cl)c3)cc2C2CC(c3ccccc3)=NN2C(C)=O)cc1 (stereo not drawn)
2. O=C(Nc1cccc(-n2ccc3c(NC(=O)c4ccccc4)nccc32)c1)c1cccc(C(F)(F)F)c1
3. CCN1CCN(c2nc(NCCCNc3ccnc4cc(Cl)ccc34)c3ccccc3n2)CC1
4. CC(C)(C)OC(=O)n1cc(CNC(=S)Nc2ccccc2)c2ccccc21
5. COc1ccc(C(=O)Nc2ncc(Cc3ccc(Cl)cc3)s2)cc1

Result:
["5400 nM", "31.4 nM", "1710 nM", "12300 nM", "47 nM"]

Parameters: items (list). Returns: GI50 for each item.
1. COc1ccc(-c2cc(-c3cc(Cl)ccc3Cl)nc3[nH]c(-c4cc(F)c(Cl)cc4Cl)cc(=O)c23)cc1
2. C[C@@H]1CC[C@H]2C(COCC3=C(C(F)(F)F)O[C@@H]4O[C@@]5(C)CC[C@H]6[C@H](C)CC[C@@H]3[C@@]46OO5)=C(C(F)(F)F)O[C@@H]3O[C@@]4(C)CC[C@@H]1[C@]32OO4

Result:
1: 18900 nM; 2: < 10 nM

###

Kindly state GI50 for each of the entries shown.
test system: UO-31 renal; experiment: NCI tumour cell line growth inhibition, 48 h

1. COc1ccc(-c2cc(-c3cc(Cl)ccc3Cl)nc3[nH]c(-c4cc(F)c(Cl)cc4Cl)cc(=O)c23)cc1	59.5 µM
2. C=C1C(O)C2CCC(C)(C)C(=O)C2=C(CC(C)C)C12CC2 (stereo not drawn)	66.1 µM
3. C1COCCN1.C1COCCN1.N.N.[Cl-].[Pt+2]	> 100 µM
4. C#Cc1cnc(=O)n(C2CC(O)C(CO)O2)c1 (stereo not drawn)	> 100 µM

Parameters: items (list). Returns: GI50 for each item.
1. C=CC(=O)Nc1cccc(-c2nc(SC)nc(Nc3ccccc3OC)c2C#N)c1
2. Cc1ccn2c3c(c(C(=O)O)c2c1)C(=O)c1ccccc1C3=O
3. Cc1nn(-c2ccc(F)cc2)c2ncnc(Nc3ccc(NC(=O)Nc4ccc(Cl)c(C(F)(F)F)c4)cc3)c12
4. O=C1/C(=C/c2ccc(F)cc2)CCOc2ccc([N+](=O)[O-])cc21
5. Cc1nn(-c2ccc(S(=O)(=O)[O-])cc2)c([O-])c1N=[N+](C)c1ccc(-c2ccc(N=Nc3ccc4c(S(=O)(=O)[O-])cc(S(=O)(=O)[O-])c(N)c4c3[O-])c([O-])c2)cc1[O-].[Cu+2].[Cu+2].[Na+]
6. NC(N)=N/N=C(/c1ccccc1)c1ccc(F)cc1
7. CCOc1ccc(S(=O)(=O)/N=C2\C=C(SCC(=O)O)C(=O)c3ccccc32)cc1
8. COc1cc(C(=O)NC2c3ccccc3-c3ccccc32)c(N)cc1OCc1ccccc1

Result:
["1.42 µM", "25.8 µM", "1.65 µM", "2.06 µM", "3.19 µM", "0.991 µM", "4.13 µM", "30.2 µM"]

Parameters: items (list). Returns: GI50 for each item.
1. O=C(CCN1CCN(c2cnc3ccccc3n2)CC1)c1csc2ccccc12
2. CC(=O)[CH-]C(=O)c1ccccc1.CC(=O)[CH-]C(=O)c1ccccc1.CCCCCCCCCCCCCCCCCC(=O)[O-].CCCCCCCCCCCCCCCCCC(=O)[O-].[Ti+4]
3. CC1(C)N=C(N)N=C(N)N1c1ccc(CCCCc2ccc(S(=O)(=O)F)cc2)cc1
4. C=CC(=O)N[C@H]1C=C(C)c2c(-c3cnc4ccccc4c3)c3c(N)ncnc3n2C1
5. Fc1cccc(COc2ccc(Nc3ncncc3C#Cc3ccccc3)cc2Cl)c1

Result:
["25.1 µM", "13.8 µM", "35.1 µM", "0.61 µM", "21.6 µM"]

Parameters: items (list). Returns: GI50 for each item.
1. O=[Se]([O-])c1ccccc1.O=[Se]([O-])c1ccccc1.[OH3+].[OH3+].[Pt+2]
2. Cc1cc2nc3c4cc(Cl)ccc4n(CCN(C)C)c3nc2cc1C
3. Cc1[nH]c(/C=C2\C(=O)Nc3ccc(S(=O)(=O)Cc4c(Cl)cccc4Cl)cc32)c(C)c1C(=O)N1CCC[C@@H]1CN1CCCC1
4. Cc1cc([C@@H](C)Nc2ccccc2C(=O)O)c2nc(N3CCOCC3)cc(=O)n2c1

Result:
5.78 µM
0.389 µM
1.41 µM
2.43 µM

Parameters: items (list). Returns: GI50 for each item.
1. NC(CO)Cc1cnc[nH]1 (stereo not drawn)
2. CCCCCCCCCC[C@@H](O)[C@H]1CC[C@H]([C@H]2CC[C@H]([C@H](O)CCCCCCCCCC[C@@H]3CC(CC(C)=O)C(=O)O3)O2)O1 (stereo partly drawn)

Result:
> 100 µM
1.66 µM

###

Kindly state TGI for each of the entries shown.
system: RXF 393 renal; assay: NCI tumour cell line growth inhibition, 48 h
Give bare numbers, in µM.

Worked examples, 3 molecules total:
1) O=C(CCN1CCN(c2cnc3ccccc3n2)CC1)c1csc2ccccc12	49.5
2) COc1cc(/C=C\[N+](=O)[O-])ccc1O	3.48
3) CC(C)(C)OC(=O)n1cc(CNC(=S)Nc2ccccc2)c2ccccc21	43.2

Query molecule follows.
Query: Entry under review: CC(=O)OCC1OC(O[C@@H]2C[C@H]3C(C)(C)[C@H](OC(C)=O)CC[C@]3(C)[C@H]3CCC4=C([C@@H](C)C[C@@H](O)[C@H](O)C(C)(C)O)CC[C@@]4(C)[C@@]32C)C(O)C(O)C1O (some centres undefined) . Reported TGI?
Result: 28
